All values here come from patent US11439622B2.

Molecular target: IMP-1 (Imipenemase-1) (Serratia marcescens, UniProt P52699)
Sequence (P52699 19-246, looked up, species assumed): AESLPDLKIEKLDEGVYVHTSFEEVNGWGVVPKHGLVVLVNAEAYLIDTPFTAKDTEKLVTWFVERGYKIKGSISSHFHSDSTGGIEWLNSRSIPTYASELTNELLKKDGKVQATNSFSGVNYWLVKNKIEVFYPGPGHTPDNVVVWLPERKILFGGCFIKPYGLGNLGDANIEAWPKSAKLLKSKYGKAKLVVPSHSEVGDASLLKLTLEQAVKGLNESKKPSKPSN
Experiment: Enzyme inhibition assay, IMP-1
Type: biochemical
Conditions: read-out: pIC50 IMP-1 (converted)
quantity: IC50 (µM)

Completed entries (count: 10):
{"structure": "Cc1cccc2c(-c3ccc(S(C)(=O)=O)cc3)c(C(=O)O)[nH]c12", "quantity": "IC50", "value": 12.6}
{"structure": "Cc1ccc2c(-c3ccc(F)cc3)c(C(=O)O)[nH]c2c1C", "quantity": "IC50", "value": 7.94}
{"structure": "Cc1ccc(-c2c(C(=O)O)[nH]c3c(C(C)C)cccc23)s1", "quantity": "IC50", "value": 0.0214}
{"structure": "CN(C)S(=O)(=O)c1ccc(-c2c(C(=O)O)[nH]c3c(CCOc4ccccc4)cccc23)cc1", "quantity": "IC50", "value": 0.1}
{"structure": "Cc1cccc2c(-c3ccc(Cn4cncn4)cc3)c(C(=O)O)[nH]c12", "quantity": "IC50", "value": 2}
{"structure": "CC(C)c1cccc2c(-c3ccc4[nH]ncc4c3)c(C(=O)O)[nH]c12", "quantity": "IC50", "value": 0.0251}
{"structure": "Cc1c(Oc2ccccc2)ccc2c(-c3ccc(Cl)cc3)c(C(=O)O)[nH]c12", "quantity": "IC50", "value": 1}
{"structure": "Cc1cccc2c(C3CCCCC3)c(C(=O)O)[nH]c12", "quantity": "IC50", "value": 79.4}
{"structure": "CC(C)c1cccc2c(-c3ccc(S(=O)(=O)N(C)C)cc3)c(C(=O)O)[nH]c12", "quantity": "IC50", "value": 0.0316}
{"structure": "CC(C)c1cccc2c(-c3ccc(S(C)(=O)=O)cc3)c(C(=O)O)[nH]c12", "quantity": "IC50", "value": 0.0398}

[P] CC(C)c1cccc2c(-c3ccc(Cl)cc3)c(C(=O)O)[nH]c12
[Q] Cc1c(Oc2ccccc2)ccc2c(-c3ccc(C(=O)N(C)C)cc3)c(C(=O)O)[nH]c12
[R] CC(C)c1cccc2c(-c3ccc(C(=O)N(C)C)cc3)c(C(=O)O)[nH]c12
[S] CCCc1cccc2c(-c3ccc(F)cc3)c(C(=O)O)[nH]c12
[T] Cc1cccc2c(-c3cccc(C(F)(F)F)c3)c(C(=O)O)[nH]c12
Arrange these 5 molecules in increasing order of IC50. Put the labels in the order asked and list them.
R, P, S, Q, T
(R: 0.02 µM, P: 0.0398 µM, S: 0.316 µM, Q: 0.646 µM, T: 3.98 µM)
